The entries below come with measured pIC50 values attached.
TARGET DESC: YKL-40 (YKL-40-histag, chitin binding site) (Homo sapiens (Human), UniProt P36222)
Sequence (P36222 22-383): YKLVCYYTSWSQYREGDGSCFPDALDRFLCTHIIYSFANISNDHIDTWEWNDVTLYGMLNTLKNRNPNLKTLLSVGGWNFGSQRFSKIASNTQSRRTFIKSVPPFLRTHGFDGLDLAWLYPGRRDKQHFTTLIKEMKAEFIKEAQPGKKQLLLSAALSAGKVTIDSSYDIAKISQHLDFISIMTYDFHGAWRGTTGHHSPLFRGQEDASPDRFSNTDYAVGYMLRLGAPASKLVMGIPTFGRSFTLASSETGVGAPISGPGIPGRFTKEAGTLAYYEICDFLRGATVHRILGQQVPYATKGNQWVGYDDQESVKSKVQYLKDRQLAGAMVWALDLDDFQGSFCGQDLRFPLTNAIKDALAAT
METHOD: YKL-40:4 assay, competitive chitin binding site AlphaScreen
pIC50: −log10 of the molar value.
ATTRIBUTE MEASURED: pIC50

| MOLECULE | ATTRIBUTE MEASURED | RESULT |
| --- | --- | --- |
| C[C@H]1CN(C2CCN(c3nncs3)CC2)[C@@H](Cc2ccc(Cl)cc2)CO1 [Compound 181, 2,2,2-trifluoroacetate] | pIC50 | < 5.00 |
| C[C@H]1CN(C2CCN(c3ncccc3C(N)=O)CC2)[C@@H](Cc2ccc(Cl)cc2)CO1 [Compound 114, 2,2,2-trifluoroacetate] | pIC50 | < 5.00 |
| C[C@H]1CN(C2CCN(c3c(F)cccc3C#N)CC2)[C@@H](Cc2ccc(Cl)cc2)CO1 [Compound 118, 2,2,2-trifluoroacetate] | pIC50 | < 5.00 |

* * *

TARGET DESC: YKL-40 (YKL-40-histag, chitin binding site) (Homo sapiens (Human))
METHOD: YKL-40:4 assay, competitive chitin binding site AlphaScreen

| COMPOUND | TARGET DESC | IC50 |
| --- | --- | --- |
| C[C@H]1CN(C2CCN(c3ccc(C#N)cn3)CC2)[C@@H](Cc2ccc(Cl)cc2)CO1 [Example 19, 2,2,2-trifluoroacetate] | YKL-40 (YKL-40-histag, chitin binding site) (Homo sapiens (Human)) | > 10 µM |
| C[C@H]1CN(C2CCN(c3nnn[nH]3)CC2)[C@@H](Cc2ccc(Cl)cc2)CO1 [Compound 166, 2,2,2-trifluoroacetate] | YKL-40 (YKL-40-histag, chitin binding site) (Homo sapiens (Human)) | > 10 µM |
| C[C@H]1CN(C2CCN(c3cccc(F)c3)CC2)[C@@H](Cc2ccc(Cl)cc2)CO1 [Compound 127, 2,2,2-trifluoroacetate] | YKL-40 (YKL-40-histag, chitin binding site) (Homo sapiens (Human)) | > 10 µM |

* * *

TARGET DESC: YKL-40 (YKL-40: heparan sulfate interaction) (Homo sapiens (Human), UniProt P36222)
METHOD: YKL-40:HS assay, heparan sulfate interference AlphaScreen
RUN PARAMETERS: read-out: YKL-40:HS, IC50/max % inh (max % inh)
Counter-ions that a name gives are not always drawn.
Label met when inhibition is at or above 50%; otherwise label not met.

| COMPOUND | TARGET DESC | CLASS ASSIGNMENT |
| --- | --- | --- |
| CNC(=O)CN1C[C@H](Cc2ccc(Cl)cc2)N(C2CCN(c3ccccn3)CC2)C[C@@H]1CC(C)C [Compound 95, 2,2,2-trifluoroacetate] | YKL-40 (YKL-40: heparan sulfate interaction) (Homo sapiens (Human), UniProt P36222) | met |
| CNC(=O)CN1C[C@H](Cc2ccc(Cl)cc2)N(C2CCN(c3ccccn3)CC2)C[C@@H]1C(C)C [Compound 106, 2,2,2-trifluoroacetate] | YKL-40 (YKL-40: heparan sulfate interaction) (Homo sapiens (Human), UniProt P36222) | not met |
| Cc1cnc(N2CCC(N3C[C@H](C)OC[C@@H]3Cc3ccc(Cl)cc3)CC2)s1 [Compound 185, 2,2,2-trifluoroacetate] | YKL-40 (YKL-40: heparan sulfate interaction) (Homo sapiens (Human), UniProt P36222) | not met |
| CN1C[C@H](Cc2ccc(Cl)cc2)N(C2CCN(c3ccccn3)CC2)C[C@@H]1Cc1ccc(Cl)cc1 [Compound 63, 2,2,2-trifluoroacetate] | YKL-40 (YKL-40: heparan sulfate interaction) (Homo sapiens (Human), UniProt P36222) | met |
| CN1C[C@H](Cc2ccc(Cl)cc2)N(C2CCN(c3cc(Cl)ccn3)CC2)C[C@@H]1CN1CCOCC1 [Compound 51, hydrochloride] | YKL-40 (YKL-40: heparan sulfate interaction) (Homo sapiens (Human), UniProt P36222) | met |
| Cc1nc(N2CCC(N3C[C@H](C)OC[C@@H]3Cc3ccc(Cl)cc3)CC2)sc1C [Compound 183, 2,2,2-trifluoroacetate] | YKL-40 (YKL-40: heparan sulfate interaction) (Homo sapiens (Human), UniProt P36222) | met |
| Cc1ccnc(N2CCC(N3C[C@H](C)OC[C@@H]3Cc3ccc(Cl)cc3)CC2)c1F [Compound 112, 2,2,2-trifluoroacetate] | YKL-40 (YKL-40: heparan sulfate interaction) (Homo sapiens (Human), UniProt P36222) | not met |
| CN1C[C@H](Cc2ccc(Cl)cc2)N(C2CCN(c3cc(Cl)ccn3)CC2)C[C@@H]1Cn1ccnc1 [Compound 82, hydrochloride] | YKL-40 (YKL-40: heparan sulfate interaction) (Homo sapiens (Human), UniProt P36222) | met |
